Target: T1, MLL4_(PHD2/3) E272K (human, UniProt O14686 227-324, E272K)
T1 construct: human MLL4 (KMT2D), aa 227-324; E272K is said to be found in cancers (Cosmic); source: E. coli BL21-CodonPlus, purified as WT
T1 sequence (looked up): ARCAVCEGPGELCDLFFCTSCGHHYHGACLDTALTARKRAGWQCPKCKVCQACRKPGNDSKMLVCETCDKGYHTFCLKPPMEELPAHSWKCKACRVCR
Assay: other fluorescence titration; tryptophan fluorescence, 25 °C; 1.0 µM MLL4 PHD2/3 or MLL3 PHD2/3 with increasing peptide; excitation 295 nm; 20 mM Tris pH 7.2, 150 mM NaCl, 1 mM TCEP, 0.02% Tween20; average of three measurements
Conditions: both partners purified
measure: pKd
Remember the convention: pKd equals -log10 of concentration in molar.

Query string: Report pKd for NRTGARTLADIKAKAQLVKAQ (peptide, UniProt Q76L83 650-670, looked up, also called ASXL2 (aa 650-670); MBH of ASXL2; source: synthetic peptide (SynPeptide)) [ASXL2 peptide (residues 650-670 of ASXL2)]
Result string: 4.55
